// provenance: the supplement of paper PMC10065799

tested on: Fer (mouse); test: phosphorylation enrichment, bacterial display (enrichment ratio); higher = better substrate or ligand; peptides without Tyr show the background;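 further: 11-residue human phosphosite peptides and single-mutation variants displayed on the E. coli surface, counted by deep sequencing, each peptide's frequency after selection divided by its frequency in the unselected input library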;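 further: frequency after pTyr selection over input frequency; kinase dosed for 20-30% of maximal phosphorylation in three min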
Property: phosphorylation enrichment; scope: individual sequences
assayEndpoint: phosphorylation enrichment

polymerSequence: PRIKTYMRPSP [TDP1_Y497_H493R]
assayEndpoint: phosphorylation enrichment
dataValue: 0.378

polymerSequence: LWKWRYEELKE [CCDC102B_Y299_K298R]
assayEndpoint: phosphorylation enrichment
dataValue: 0.771

polymerSequence: RLRAAYNLVKR [PFKM_Y103]
assayEndpoint: phosphorylation enrichment
dataValue: 0.771

polymerSequence: SELVRYDARVH [MET_Y971]
assayEndpoint: phosphorylation enrichment
dataValue: 0.442

polymerSequence: MKVPLYETPAG [PGM5_Y358_V357L]
assayEndpoint: phosphorylation enrichment
dataValue: 16.7

polymerSequence: VDLIVYLWTNP [TK2_Y181_R183W]
assayEndpoint: phosphorylation enrichment
dataValue: 0.841

polymerSequence: QLFGPYLRIHA [BSCL2_Y213_A212P_YF]
assayEndpoint: phosphorylation enrichment
dataValue: 0.427

* * *

test system: c-Src; assay: phosphorylation enrichment, bacterial display (enrichment ratio); higher = better substrate or ligand; peptides without Tyr show the background
Rule: phosphorylation enrichment of 0.5 or more gives MET; anything lower gives NOT MET.

polymerSequence: LKGQVDILGRE [ASS1_Y359_Y359D]
qualitativeLabel: MET

polymerSequence: TSNQEYLYLSM [FGFR1_Y766_D768Y]
qualitativeLabel: MET

polymerSequence: RENGPYFASFP [GDAP2_Y487_T489A_YF]
qualitativeLabel: MET

polymerSequence: SVVVPNEPPEV [TP53_Y220_Y220N]
qualitativeLabel: MET

polymerSequence: TVVVPYEPPEV [TP53_Y220_S215T]
qualitativeLabel: MET

polymerSequence: HKANEYYPVVL [ADAMTS18_Y764]
qualitativeLabel: MET

polymerSequence: TTKAKYKTPTF [PLD2_Y573_YF]
qualitativeLabel: NOT MET

polymerSequence: APRKVYDTRDD [ZFPL1_Y215]
qualitativeLabel: NOT MET

polymerSequence: SLTRLYVGENA [NLRP3_Y861]
qualitativeLabel: NOT MET

polymerSequence: SLIDMYSKVLD [OPA1_Y268_E270K]
qualitativeLabel: NOT MET

polymerSequence: GLDGSYLPRDS [SH2D1A_Y29_L31P]
qualitativeLabel: NOT MET

polymerSequence: GFILMYDITNK [RAB3C_Y110_E115K]
qualitativeLabel: MET

polymerSequence: LTFDEYRNNSQ [ANXA3_Y216_I219N]
qualitativeLabel: MET

polymerSequence: RLGDLYKEEMR [VIM_Y150_E151K]
qualitativeLabel: MET

polymerSequence: PLYGEYFTLQI [TP53_Y327_D324Y]
qualitativeLabel: MET

polymerSequence: LFSLGYHQSRW [GANAB_Y396]
qualitativeLabel: NOT MET

polymerSequence: ARIVDYNIIGW [MYH7_Y588_G584R]
qualitativeLabel: NOT MET

polymerSequence: GVYSRHFTTYD [CLCA1_Y661_Y661H]
qualitativeLabel: MET

polymerSequence: KHCEDYVCSFN [DSC1_Y846_YF]
qualitativeLabel: MET

polymerSequence: IHRWVYPLTPE [EIF2B5_Y319_R315H]
qualitativeLabel: NOT MET

polymerSequence: KVKPIYLHTQG [AR_Y916_F917L]
qualitativeLabel: NOT MET

polymerSequence: ALLTKYSRSSM [DSCC1_Y374_H376R]
qualitativeLabel: MET

polymerSequence: KGELCYMHSRV [ABCD1_Y281_R280C]
qualitativeLabel: NOT MET

polymerSequence: KGRAGYTTVAV [RET_Y752]
qualitativeLabel: NOT MET

polymerSequence: FTRNYYVRAVL [CYBA_Y88]
qualitativeLabel: NOT MET

polymerSequence: KFSNQYKATIG [RAB7A_Y37]
qualitativeLabel: NOT MET

* * *

molecular target: Hck (UniProt P08631); test: phosphorylation enrichment, bacterial display (enrichment ratio); higher = better substrate or ligand; peptides without Tyr show the background
Sequence (P08631 whole entry, looked up): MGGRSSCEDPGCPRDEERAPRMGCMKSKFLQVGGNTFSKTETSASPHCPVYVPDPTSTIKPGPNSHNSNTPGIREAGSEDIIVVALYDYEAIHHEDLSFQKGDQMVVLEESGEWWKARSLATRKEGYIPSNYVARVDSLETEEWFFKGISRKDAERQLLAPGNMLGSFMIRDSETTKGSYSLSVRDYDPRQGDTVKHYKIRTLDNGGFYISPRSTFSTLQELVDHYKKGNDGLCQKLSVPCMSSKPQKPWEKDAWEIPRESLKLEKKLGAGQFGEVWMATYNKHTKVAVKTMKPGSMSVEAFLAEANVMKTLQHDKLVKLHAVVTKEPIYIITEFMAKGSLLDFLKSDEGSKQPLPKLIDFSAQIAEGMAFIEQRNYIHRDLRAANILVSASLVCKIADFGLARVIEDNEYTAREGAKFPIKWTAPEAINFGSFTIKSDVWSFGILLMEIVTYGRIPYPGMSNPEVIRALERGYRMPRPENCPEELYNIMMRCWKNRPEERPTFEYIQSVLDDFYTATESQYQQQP
A collection of sequences and their measured phosphorylation enrichment

polymerSequence: LFMGDYVDRGY [PPP2CA_Y86]
phosphorylation enrichment: 1.01
//
polymerSequence: KNEKVYTRHGV [FLOT1_Y56_S52N]
phosphorylation enrichment: 0.344
//
polymerSequence: FSTDCYRVGGH [NTRK2_Y707_Y706C_YF]
phosphorylation enrichment: 0.646
//
polymerSequence: LLVVLNKFRCF [PSEN1_Y154_Y154N_YF]
phosphorylation enrichment: 0.837
//
polymerSequence: IHRWVYPLTPE [EIF2B5_Y319_R315H]
phosphorylation enrichment: 0.487
//
polymerSequence: LEQRPYRRGSE [KCNJ12_Y427_E430G]
phosphorylation enrichment: 0.523
//
polymerSequence: FRASFYRKGGC [ALK_Y1283_YF]
phosphorylation enrichment: 0.477
//
polymerSequence: PEADKYHLTFA [FGG_Y300_R301H_YF]
phosphorylation enrichment: 0.939
//
polymerSequence: MARDIYQASYY [LTK_Y672_R673Q]
phosphorylation enrichment: 6.75
//
polymerSequence: LWKWRYEELKE [CCDC102B_Y299_K298R]
phosphorylation enrichment: 0.561
//
polymerSequence: WVYNHYRWIIW [BRCA2_Y2624]
phosphorylation enrichment: 0.461
//
polymerSequence: LWQSIYNLEAE [TNNT2_Y251]
phosphorylation enrichment: 7.01
//
polymerSequence: SLTGAYASGIP [POM121C_Y378_T379A]
phosphorylation enrichment: 0.575
//
polymerSequence: ATARPYRPYII [LRP5_Y1528]
phosphorylation enrichment: 0.413
//
polymerSequence: PATINYPFEKG [NDUFS8_Y84]
phosphorylation enrichment: 0.342
//
polymerSequence: ELPEKYSQNIC [PKP2_Y626_Y631C]
phosphorylation enrichment: 0.533
//
polymerSequence: TQNAVYSAANF [DDX5_Y535_G533A_YF]
phosphorylation enrichment: 12
//
polymerSequence: DQIDTYELSGG [DNM1_Y354]
phosphorylation enrichment: 0.752
//
polymerSequence: MKVPLYETPAG [PGM5_Y358_V357L]
phosphorylation enrichment: 6.03
//
polymerSequence: SLFQFYFQQKG [CHKB_Y381_R377L]
phosphorylation enrichment: 0.488
//
polymerSequence: MKALGYFAVGT [OPA1_Y498_V502G]
phosphorylation enrichment: 0.489
//
polymerSequence: TTASRYLKVSD [MYOM2_Y871_N869S]
phosphorylation enrichment: 0.311
//
polymerSequence: DTYDPYLDIAL [USP36_Y268_V271I]
phosphorylation enrichment: 1.06
//
polymerSequence: IITDFYVDMKF [MPP4_Y567_V562I_YF]
phosphorylation enrichment: 0.722
//
polymerSequence: VSAPEYGPKLK [TBC1D14_Y46_L41V]
phosphorylation enrichment: 0.465
//
polymerSequence: GLRSYYETSKM [MAGED2_Y449]
phosphorylation enrichment: 0.656
//
polymerSequence: PPNSPYMGSSP [KCNT1_Y740_I741M]
phosphorylation enrichment: 0.521
//
polymerSequence: EKKKKYMLPLD [DNM2_Y563_E560K]
phosphorylation enrichment: 0.452
//
polymerSequence: RVDRDYVLKSA [HTATIP2_Y111]
phosphorylation enrichment: 0.772
//
polymerSequence: FTFNSYFMHWV [IGHV1-46_Y51_T49N_YF]
phosphorylation enrichment: 0.693
//
polymerSequence: LNPDGYKKAFE [CPXM2_Y427_E428K_YF]
phosphorylation enrichment: 0.54
//
polymerSequence: LKEIHYPPFTD [ALDH3B2_Y362_YF]
phosphorylation enrichment: 0.437
//
polymerSequence: DTDSSYCIPTA [GAB1_Y373]
phosphorylation enrichment: 0.578
//
polymerSequence: LQPNNCQFCGG [CSF1R_Y969_Y969C]
phosphorylation enrichment: 0.987
//
polymerSequence: ENKGVYVLMSG [IVD_Y277]
phosphorylation enrichment: 0.518
//
polymerSequence: ETSHNYHKFDS [MATR3_Y243]
phosphorylation enrichment: 0.395
//
polymerSequence: EVASVYESFQP [MAVS_Y92_Q93E_YF]
phosphorylation enrichment: 8.64
//
polymerSequence: NKFVAYIESQG [KDM4B_Y34_YF]
phosphorylation enrichment: 0.494
//
polymerSequence: NQELIYEGQRL [TBK1_Y354_R357Q]
phosphorylation enrichment: 7.73
//
polymerSequence: MSSLFYANALF [HOXB7_Y6_T9A_YF]
phosphorylation enrichment: 0.705
//
polymerSequence: NTVLGYFIGRI [GARS1_Y408]
phosphorylation enrichment: 0.495
//
polymerSequence: RSRRSYSCQVM [IGLL1_Y192]
phosphorylation enrichment: 0.64
//
polymerSequence: IGEGTYRTVFK [CDK5_Y15_G16R]
phosphorylation enrichment: 0.532
//
polymerSequence: QDRTFYERVRT [SPEN_Y633_S635R_YF]
phosphorylation enrichment: 1.2
//
polymerSequence: YSTDYYRVGGH [NTRK2_Y707]
phosphorylation enrichment: 2.55
//
polymerSequence: FGGTVCHSPVS [PRC1_Y511_Y511C]
phosphorylation enrichment: 0.505
//
polymerSequence: LDFPEYDGVDR [CASQ1_Y43]
phosphorylation enrichment: 1.11
//
polymerSequence: LANNEYFFQVC
phosphorylation enrichment: 0.932
//
polymerSequence: LLVVLYKYRCY [PSEN1_Y154]
phosphorylation enrichment: 0.708
//
polymerSequence: GVMLLYYGRYN [ADGRD1_Y85_T82M]
phosphorylation enrichment: 1.21
//
polymerSequence: KGYRGYSYDDI [TMEM230_Y110]
phosphorylation enrichment: 0.395
//
polymerSequence: PPSELYFVKVD [TERT_Y707_P704S]
phosphorylation enrichment: 1.95
//
polymerSequence: EAEALYQTKFQ [KRT73_Y325]
phosphorylation enrichment: 2.65
//
polymerSequence: TVSSDYLHPQF [CCPG1_Y569_F566S_YF]
phosphorylation enrichment: 0.444
//
polymerSequence: RLMLQYDAVVN [SLC25A32_Y152]
phosphorylation enrichment: 0.702
//
polymerSequence: CEQELYSQLVY [WAS_Y102_W97C]
phosphorylation enrichment: 6.75
//
polymerSequence: RALLNYIASKF [GSTA3_Y74_I71L_YF]
phosphorylation enrichment: 0.721
